Cited source for all entries: PubChem BioAssay (NCATS)

# tgt: Cellular tumor antigen p53 (Homo sapiens) (UniProt P04637)
# Sequence (P04637 whole entry, looked up): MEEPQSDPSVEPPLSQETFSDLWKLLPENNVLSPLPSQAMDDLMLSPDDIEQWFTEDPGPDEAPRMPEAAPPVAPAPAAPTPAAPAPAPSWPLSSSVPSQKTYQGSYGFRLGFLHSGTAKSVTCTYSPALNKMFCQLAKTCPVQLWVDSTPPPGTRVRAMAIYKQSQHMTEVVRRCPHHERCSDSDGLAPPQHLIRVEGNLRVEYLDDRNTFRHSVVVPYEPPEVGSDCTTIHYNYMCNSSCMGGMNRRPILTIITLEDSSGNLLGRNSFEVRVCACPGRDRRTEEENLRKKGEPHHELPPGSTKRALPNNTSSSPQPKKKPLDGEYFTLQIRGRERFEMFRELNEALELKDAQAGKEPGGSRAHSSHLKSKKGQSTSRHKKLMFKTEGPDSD
# method: Primary qHTS for small molecule compounds that upregulate eGFP-tagged delta133p53alpha (in N-terminal) cells. (AID 2060322);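 also: cells pre-induced with doxycycline then dosed without doxycycline; 0% = DMSO vehicle and 100% = reference activator; nearly all actives have a fitted effect of over 75% in size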
# cond: NCI-H358 eGFP-delta133p53alpha fluorescence, 24 h; active compounds read high
Results filed as inconclusive are left out.
# activation values compiled below
recorded-metric: activation (%)

compound=COC(=O)C(Cl)C(=O)OC reading_unit=% value=-13.4
compound=CC[C@H]1C[C@H]2[C@@H]3CCC4=CC(=O)CC[C@@H]4[C@H]3CC[C@]2(C)[C@H]1O reading_unit=% value=5.67
compound=Nc1cc2c(ncn2CCOCP(=O)(O)O)c(=O)[nH]1 reading_unit=% value=-41.7
compound="C[C@]12Cc3cn4c(nc3C=C1CCC1C2CC[C@@]2(C)[C@H]1CC[C@@]2(O)C#N)nc1ccccc14 (stereo not given in full)" reading_unit=% value=-9.64
compound="CCCC[N+]1(C)[C@H]2CC(OC(=O)[C@H](CO)c3ccccc3)C[C@H]1[C@H]1O[C@H]12 (stereo not given in full)" reading_unit=% value=-13.2
compound="NC(=O)c1ccc(OCC(O)CN2CC=C(c3ccc(F)cc3)CC2)cc1 (stereo not given)" reading_unit=% value=5.52
compound="CCN1CCCC1CNC(=O)C(O)(c1ccccc1)c1ccccc1 (stereo not given)" reading_unit=% value=-15.1
compound="C[C@@H]1O[C@@H](O[C@H]2C[C@@H](O)[C@]3(CO)[C@@H]4C(CC[C@]3(O)C2)[C@@]2(O)CC[C@H]([C@@H]3COC(=O)C3)[C@@]2(C)C[C@H]4O)[C@H](O)[C@H](O)[C@H]1O (stereo not given in full)" reading_unit=% value=-50
compound=CC(=O)c1c(O)c(C)c(O)c(Cc2c(O)c3c(c(C(=O)/C=C/c4ccccc4)c2O)OC(C)(C)C=C3)c1O reading_unit=% value=-54.1
compound=ClCCN1CCCC1 reading_unit=% value=4.18

###

# method: BET inhibitor-based combinations targeting novel dependencies in MECOM-rearranged (r) AML: AML-191 cell line (AID 2202236; also: nearly all actives have a fitted effect of over 35% in size)
# cond: AML-191 viability, CellTiter-Glo luminescence, 48 h; series mostly up to 46 µM
Inconclusive results are not listed. The source made the active and inactive calls. Calls come from the whole dose curve; as a rule, active = well fitted inhibition curve with a large enough effect; inconclusive = small, poorly fitted or top-dose-only effect; inactive = flat fitted curve, though single readings scatter.
Possible outcomes: Y for active, N for inactive

molecule=CCN1CCN(C(=O)Cc2ccc(Nc3ncc(F)c(Nc4ccc(C(=O)Nc5ccccc5Cl)cc4)n3)cc2)CC1 discrete_label=Y
molecule=C[C@@H]1C[C@@H]([C@H](O)CC2CC(=O)NC(=O)C2)C(=O)[C@@H](C)C1 discrete_label=Y
molecule=C#CCN(C)[C@H](C)Cc1ccccc1 discrete_label=N
molecule=C[C@]12Cc3cn[nH]c3C[C@@H]1CC[C@@H]1[C@@H]2CC[C@@]2(C)[C@H]1CC[C@]2(C)O discrete_label=N
molecule=CC(=O)N1N=C(c2ccc(N)cc2)c2cc3c(cc2C[C@H]1C)OCO3 discrete_label=N
molecule=COc1cc(C)[nH]c(=O)c1CNC(=O)c1c(C)n([C@H](C)C2CCOCC2)c2ccccc12 discrete_label=N
molecule="CCOP(=O)(OCC)C(C)NC(=O)N(CCCl)N=O (centres undefined)" discrete_label=N
molecule=CC1=C2C[C@H]3[C@@H](CC=C4C[C@@H](O)CC[C@@]43C)[C@@H]2CC[C@]12O[C@@H]1C[C@H](C)CN[C@H]1[C@H]2C discrete_label=N
molecule=CCOC(=O)Nc1ccc(NCc2ccc(F)cc2)cc1N discrete_label=N
molecule=CC1(N2CCC(n3c([C@@H]4CCCNC4)nc4ccccc43)CC2)CCCCCCC1 discrete_label=Y
molecule=CC1=C(O)C(=O)C=C2C1=CC=C1[C@@]2(C)CC[C@@]2(C)[C@@H]3C[C@](C)(C(=O)O)CC[C@]3(C)CC[C@]12C discrete_label=Y
molecule=O=C1C=CC[C@@H]2[C@H]3CCCN4CCC[C@@H](CN12)[C@@H]34 discrete_label=N
molecule=CC[C@@]1(O)C(=O)OCc2c1cc1n(c2=O)Cc2cc3ccccc3nc2-1 discrete_label=Y
molecule=CN[C@@H]1Cc2cccc3[nH]c(=O)n(c23)C1 discrete_label=N
molecule=COC(=O)[C@@H](N)CCCN=C(N)N[N+](=O)[O-] discrete_label=N
molecule=COc1ccc(C(=O)N2CCCC2=O)cc1 discrete_label=N
molecule=COC[C@@H](NC(C)=O)C(=O)NCc1ccccc1 discrete_label=N
molecule=C[C@]12CC[C@@H]3[C@@H](CCC4=CC(=O)CC[C@@H]43)[C@@H]1CC[C@@H]2OC(=O)CCc1ccccc1 discrete_label=N
molecule=C[C@@H]1O[C@@H](O[C@H]2C[C@@H](O)[C@]3(CO)[C@H]4[C@H](O)C[C@]5(C)[C@@H](C6=CC(=O)OC6)CC[C@]5(O)[C@@H]4CC[C@]3(O)C2)[C@H](O)[C@H](O)[C@H]1O discrete_label=Y
